Tested on: MS2 coat protein
method_summary: apparent KD of MS2 coat protein; designed switch direction (-1 OFF switch, 1 ON switch): -1; higher = weaker reporter binding
assay_setup: input ligand: FMN 200 uM

| record_sequence | apparent KD of MS2 coat protein, µM |
| --- | --- |
| AGGUAGUCAGGAUAUUAGGAGUAGCGGGAUAACGCUACGAGUGAGAAGGGACAUGAGGAUCACCCAUGUUUAUU [JR_Ex4_Sub069] (Eterna round: R97, puzzle: Exclusion 4) | 0.0703 |
| GCGCGCUAAGGAUAUACAUGAGGAUCACCCAUGUGCGCGCAAAAGCGCCGCGCGCGCGGUAGAAGGUAGGCAAA [Extraordinary-Exclusion 3] (Eterna round: R97, puzzle: Exclusion 3) | 0.016 |
| GGUCCACAUGAGGAUCACCCAUGUUAGGAUAUCUCCUGCCUCCUAAAUGGAAGCAGACAGAGAAGGAACAUCAA [Soanatra] (Eterna round: R96, puzzle: Exclusion 1) | 0.113 |
| AAACCCUGAGGAUAUAGAUAACAACAAAGCCUCACGUGCCAACAUGAGGAUCACCCAUGUAGAAGGCAGGCCAA [Mod R3 Insanara 4 - Jieux - Exclusion 2] (Eterna round: R97, puzzle: Exclusion 2) | 0.0147 |
| CGUUCGCGAGGAUAUGCAUUCGAGUCCACUACGUGUCUGGGACUUGAGGAUCACCCAAGUAGAAGGCGCCUCCC [salish99_ex2_r4_649] (Eterna round: R97, puzzle: Exclusion 2) | 0.0713 |

====

Tested on: MS2 coat protein
method_summary: apparent KD of MS2 coat protein; designed switch direction (-1 OFF switch, 1 ON switch): 1; higher = weaker reporter binding
assay_setup: Eterna round: R95; input ligand: none
attribute_measured: apparent KD of MS2 coat protein (nM)

| record_sequence | assayed_target | attribute_measured | measured_result |
| --- | --- | --- | --- |
| UUUAAACAUGAGGAUCACCCAUGUCAACAAAGUCGAGGAUAUGGGCAAAUAAAAUAAGAACCAGAAGGCGAAUAAU [salish99_ss1_r3_068] (puzzle: Same State 1) | MS2 coat protein | apparent KD of MS2 coat protein | 334 |
| GGAGCCGGCACUGAGGAUAUUCAUAUUUAAACAUGAGGAUCACCCAUGUAGGCCAGAAGGCCUUGGGAGAAGGCAGGUCGGCUCG [salish99_ss2_r3_076] (puzzle: Same State 2) | MS2 coat protein | apparent KD of MS2 coat protein | 493 |
| AACAAUCUAUCUGAGGAUAUCAUGUAAUAAACAUGAGGAUCACCCAUGUGCAGGAAAACUGCAUAUGAGAAGGCAGAUAGAUUGA [salish99_ss2_r3_030] (puzzle: Same State 2) | MS2 coat protein | apparent KD of MS2 coat protein | 180 |
| GGAGCCGGCACUGAGGAUAUUCAUAUUAAAACAUGAGGAUCACCCAUGUGGGCCAGAAGGCCUUGGGAGAAGGCAGGUCGACUCG [Diqureveri - 3] (puzzle: Same State 2) | MS2 coat protein | apparent KD of MS2 coat protein | 243 |
| GAGGGACAUGAGGAUCACCCAUGUGGAGGGAGUAAAGGAUAUUAGUGUGGGAAAGUAGGGUAAGAAGGUUGAUUGG [JR_SS1_Sub084] (puzzle: Same State 1) | MS2 coat protein | apparent KD of MS2 coat protein | 209 |
| CUGUCUACAGGUGUCUUUGCUCGUUUUAUACAUGAGGAUCACCCAUGUUAUAGCCCGGUGCUUGCGCUGGGCUGAUU [JL ViennaUCT Tearor mod 8] (puzzle: Sensor for hsa-mir-208a) | MS2 coat protein | apparent KD of MS2 coat protein | 63 |
| GAGAAGAGGGACAAGGAUAUGUCAGGAGAGACAUGAGGAUCACCCAUGUAGAGGUUGGAGGAGAGACAGAAGGUGUCGGGAGCGA [JR_SS2_Sub013] (puzzle: Same State 2) | MS2 coat protein | apparent KD of MS2 coat protein | 109 |
| GUAAAACAUGAGGAUCACCCAUGUCAAUGUAGUCGAGGAUAUGGGUAGCUAUGAGGCGUACUAGAAGGCGAAAAGU [Mat - Same State 1 - Mod of JL - D18] (puzzle: Same State 1) | MS2 coat protein | apparent KD of MS2 coat protein | 248 |
| GUGGUGUAGAUACAGGAUAUGUUGCUCGUAACAUGAGGAUCACCCAUGUAUCUAUGAGAUUAAAUGCAGAAGGGUGCACACCACU [salish99_ss2_r3_086] (puzzle: Same State 2) | MS2 coat protein | apparent KD of MS2 coat protein | 325 |
| CACAAUCUAUCUGAGGAUAUCAUGAAAAAAACAUGAGGAUCACCCAUGUGCAGGAAAACUGCAUAUGAGAAGGCAGAUAGAUUGU [salish99_SS2_r3_015] (puzzle: Same State 2) | MS2 coat protein | apparent KD of MS2 coat protein | 913 |

====

Test system: MS2 coat protein
method_summary: apparent KD of MS2 coat protein; designed switch direction (-1 OFF switch, 1 ON switch): -1; higher = weaker reporter binding
assay_setup: input ligand: none
Overview of recorded apparent KD of MS2 coat protein for various sequences
attribute_measured: apparent KD of MS2 coat protein

| record_sequence | measured_result |
| --- | --- |
| CCUCAACAUGAGGAUCACCCAUGUCAGGAUAUGCGAAUUUCAUCAAAAGAUGAAAUUUGCAGAAGGGACUAAGC [Omei Ex1 A33] (Eterna round: R97, puzzle: Exclusion 1) | 133 nM |
| UAUUUACAUGAGGAUCACCCAUGUCAGGAUAUGCUCGAUAUAUGGAAACAUAUAUCGAGCAGAAGGGACUAGCG [Jieuxxlusion 7 - Jieux - Exclusion 1] (Eterna round: R97, puzzle: Exclusion 1) | 72.7 nM |
| GCAGCUAGUUCAGGAUAUCAGCACGUGUAGUGCUGAGAAGGGAACAUGAGGAUCACCCAUGUGAUCAAUGCUGCAAUUUUAAUU [ENG1/12-A3] (Eterna round: R96, puzzle: Exclusion NG 1) | 2260 nM |

====

Tested on: MS2 coat protein
method_summary: apparent KD of MS2 coat protein; higher = weaker reporter binding
assay_setup: Eterna round: R107; input ligand: arginine 13.2 mM
Overview of recorded apparent KD of MS2 coat protein for various sequences

| record_sequence | apparent KD of MS2 coat protein |
| --- | --- |
| UGACAUUGCUCAGAUACCAGACAUGAGGAUCACCCAUGUGCCAACGUACAAAUAAUAAAUGUCCCUUGGCAGCUGAGCAAUGUCU [TheoBX 15 #MS2Left #Theo2] | 16.2 nM |
| AGUUACUCGAACAUGGUUGACGAGUGGCAACGAGGACCGGUACGGCCGCCACUCGAAUAAACAUGAGGAUCACCCAUGUACAAAU [T''-M'-T'-T-MS2 - Design 10.b] | 61.9 nM |
| GCACCAGGUACGGAUACCAGACUCUGCCGAUUGGGUGAACAUGAGGAUCACCCAUGUUAGGUCCCUUGGCAGCCGUACCUGGUGC [#18 Exclusion-TheophyllineB] | 26.4 nM |
| CUUGUGCUGACGGCCGCCACUUUAUGGGAGUCCUGUUCUGAUUGAUACAUGAGGAUCACCCAUGUAAGGACCGGGUCGUACCAUA [theeternabot_exclusion_MS2_Trp_B_22] | 22.7 nM |
| AGACGAGAAGAGGUUUACCCAUGUACAGAAGGAGCGUCGUUGACGACAGGUAGGUCGCUGGAAACAUGAGGAUCACCCAUGUUGA [#06 Exclusion - Arginine A] | 27.4 nM |

====

System: MS2 coat protein
method_summary: apparent KD of MS2 coat protein; designed switch direction (-1 OFF switch, 1 ON switch): 1; higher = weaker reporter binding
assay_setup: input ligand: FMN 200 uM
attribute_measured: apparent KD of MS2 coat protein (nM)

| record_sequence | measured_result |
| --- | --- |
| CUGAGCGAUUAAGGAUAUCACGUCGAAUAGACGUGAGAAGGUGAUCAUAACAUGAGGAUCACCCAUGUAUUACAUGAAGCUCAG [SSNG1/3-A1] (Eterna round: R96, puzzle: Same State NG 1) | 305 |
| AAAAAACAUGAGGAUCACCCAUGUCAAAAGACAUGAGGAUAUGUACAGACUUCGGUCUGUACAGAAGGCAUGUAAA [SS1 - 1015] (Eterna round: R96, puzzle: Same State 1) | 28.9 |
| ACGUGGACGAAAGUCCACGAAUAAGACGAACAUGAGGAUCACCCAUGUGAGGCGAGCUUUUUGUUCGUCUUAUAAAA [Mat - Sensor - Mod - D116] (Eterna round: R96, puzzle: Sensor for hsa-mir-208a) | 73.1 |
| UGAAUAUUUACAGGAUAUGAGUUGUAUAGUGGAUCAGAAGGGUGGGUGUUUUGCACGGUGUGUUACAUGAGGAUCACCCAUGUU [SameState NG1 #26] (Eterna round: R96, puzzle: Same State NG 1) | 412 |
| GCAGGACGAUAAUAUAACUUCACAUGAGGAUCACCCAUGUCUCAGGAUAUGGAUCCUAAUUGGAUCCAGAAGGGAGCGUCCUGC [Fiskers NG3ss - 34] (Eterna round: R96, puzzle: Same State NG 3) | 14.5 |
| AUUUUUAAUGCAGGAUAUGAUUAACAUGAGGAUCACCCAUGUGGUGUUGUGAGUAAGGAGAGUGAUCAGAAGGGCAUUUUUGUU [JMF's solution 85] (Eterna round: R96, puzzle: Same State NG 2) | 686 |
| GCGAAGAGGUAAGGAUAUGCAUGGCGGAGACAUGAGGAUCACCCAUGUUGGAGACGAAAUCUAGGGUAGAAGGUACCGGGAAGC [ssng2 v2 b] (Eterna round: R96, puzzle: Same State NG 2) | 75.4 |
| AUUUGCGCUAUAGGAUAUGGCAGGGUGAACCAGCCAGAAGGAUAAGUAGGGAGGUGACAUGAGGAUCACCCAUGUAAUAAGGAA [Eternabot solution 6] (Eterna round: R96, puzzle: Same State NG 1) | 330 |
| UGAAUAGUCACAGGAUAUCAUGCGAAAAUUGCGUGAGAAGGGUGGGUGUUGUGCUCAAAGUGCUACAUGAGGAUCACCCAUGUU [SameState NG1 #41] (Eterna round: R96, puzzle: Same State NG 1) | 1540 |
